Tested on: SK-MEL-5
PROTOCOL: NCI tumour cell line growth inhibition, 48 h
Active and inactive are the calls of the source. Cut-off read from the data, not from the text of the source: active = GI50 up to about 1.1 µM and inactive = higher.
Outcome codes: YES for active, NO for inactive

MOLECULE: NC(=O)C1=C(c2ccccc2)c2ccccc2C1=O
TARGET_OF_ASSAY: SK-MEL-5
ANSWER_LABEL: NO
--
MOLECULE: O=C(NNC(=O)c1ccccc1O)c1ccccc1O
TARGET_OF_ASSAY: SK-MEL-5
ANSWER_LABEL: YES
--
MOLECULE: COc1cccc(N[C@@H]2c3cc4c(cc3C(c3cc(OC)c(O)c(OC)c3)[C@H]3C(=O)OCC32)OCO4)c1 (stereo not given in full)
TARGET_OF_ASSAY: SK-MEL-5
ANSWER_LABEL: YES
--
MOLECULE: Cc1cc(S(=O)(=O)/N=C(\NN)NCC(=O)NN)c(S)cc1Cl
TARGET_OF_ASSAY: SK-MEL-5
ANSWER_LABEL: NO
--
MOLECULE: COC(=O)c1c(OC(C)=O)ccc2c1c1c(n2C)C(=O)c2ccccc2C1=O
TARGET_OF_ASSAY: SK-MEL-5
ANSWER_LABEL: NO
--
MOLECULE: O=C(N/C(=C\c1ccc([N+](=O)[O-])cc1)c1nc2cc(Cl)ccc2[nH]1)c1ccccc1
TARGET_OF_ASSAY: SK-MEL-5
ANSWER_LABEL: NO
--
MOLECULE: CC1(C)OC(=O)N(c2ccccc2)C12C=Cc1cccc([N+](=O)[O-])c1O2 (stereo not given)
TARGET_OF_ASSAY: SK-MEL-5
ANSWER_LABEL: NO
--
MOLECULE: CCN(CC)CSc1nc2ccccc2s1
TARGET_OF_ASSAY: SK-MEL-5
ANSWER_LABEL: NO
--
MOLECULE: CCCCCCCCCCCCC(Br)C(C)=O (stereo not given)
TARGET_OF_ASSAY: SK-MEL-5
ANSWER_LABEL: NO
--
MOLECULE: O=C(O)C1(Cc2ccc3c(c2)CCC3)Cc2ccccc2C1
TARGET_OF_ASSAY: SK-MEL-5
ANSWER_LABEL: NO
--
MOLECULE: N#CC1(C=O)c2ccccc2C=CN1C(=O)c1ccccc1 (stereo not given)
TARGET_OF_ASSAY: SK-MEL-5
ANSWER_LABEL: NO
--
MOLECULE: C=C(COCO)C(C)=O
TARGET_OF_ASSAY: SK-MEL-5
ANSWER_LABEL: NO
--
MOLECULE: c1ccc2c(c1)nc1ccccn12
TARGET_OF_ASSAY: SK-MEL-5
ANSWER_LABEL: NO
--
MOLECULE: COc1cccc(OC)c1/C=C1\OC(=O)c2cccc(OC)c21
TARGET_OF_ASSAY: SK-MEL-5
ANSWER_LABEL: NO
--
MOLECULE: CCc1n[nH]c(=O)n1CCCCCCCCn1c(CC)n[nH]c1=O
TARGET_OF_ASSAY: SK-MEL-5
ANSWER_LABEL: NO
--
MOLECULE: CC1=C(C(=O)Nc2cccc3c2C(=O)NC3=O)CC(C(=O)Nc2cccc3c2C(=O)NC3=O)=C(C)N1
TARGET_OF_ASSAY: SK-MEL-5
ANSWER_LABEL: NO
--
MOLECULE: Cn1c(=O)c2nc(COCc3nc4c(=O)n(C)c(=O)n(C)c4[nH]3)[nH]c2n(C)c1=O
TARGET_OF_ASSAY: SK-MEL-5
ANSWER_LABEL: NO
--
MOLECULE: COc1cc2c3c(n(Cc4ccccc4)c(=O)c2cc1OC)-c1ccccc1C3=O
TARGET_OF_ASSAY: SK-MEL-5
ANSWER_LABEL: NO
--
MOLECULE: C=CCNC(=O)CN(CC(=O)O)C1CCCCC1N(CC(=O)O)CC(=O)O (stereo not given)
TARGET_OF_ASSAY: SK-MEL-5
ANSWER_LABEL: NO
--
MOLECULE: COC(=O)C1=C(C(=O)OC)C2C(C)=CC(C)=CN2C(C#N)=C(SC)S1 (stereo not given)
TARGET_OF_ASSAY: SK-MEL-5
ANSWER_LABEL: NO
--
MOLECULE: CC(=O)OCC1OC(NC(=S)CCSc2nc3ccccc3c(=O)n2-c2ccccc2)C(OC(C)=O)C(OC(C)=O)C1OC(C)=O (stereo not given)
TARGET_OF_ASSAY: SK-MEL-5
ANSWER_LABEL: NO
--
MOLECULE: C/C=C/[C@H]1O[C@@](O)([C@@H](C)[C@H](O)[C@H](C)[C@H]2OC(=O)/C(OC)=C/C(C)=C/[C@@H](C)[C@@H](O)[C@@H](CC)[C@@H](O)[C@H](C)C/C(C)=C/C=C/[C@@H]2OC)C[C@H](OC2CC(O)C(O)C(C)O2)[C@@H]1C (stereo not given in full)
TARGET_OF_ASSAY: SK-MEL-5
ANSWER_LABEL: YES
--
MOLECULE: CN(C)CC(C)(C)CN1c2ccccc2Sc2ccccc21
TARGET_OF_ASSAY: SK-MEL-5
ANSWER_LABEL: NO
--
MOLECULE: COc1ccc(C2OC(c3ccncc3)=NN2C)cc1F (stereo not given)
TARGET_OF_ASSAY: SK-MEL-5
ANSWER_LABEL: NO
--
MOLECULE: Oc1cccc2ccc(SSc3ccc4cccc(O)c4n3)nc12
TARGET_OF_ASSAY: SK-MEL-5
ANSWER_LABEL: NO
--
MOLECULE: O=C(O)/C(O)=C\C(=O)c1ccc(Br)cc1
TARGET_OF_ASSAY: SK-MEL-5
ANSWER_LABEL: NO
--
MOLECULE: O=c1c2cc(I)ccc2nc(S)n1Cc1ccccc1
TARGET_OF_ASSAY: SK-MEL-5
ANSWER_LABEL: NO
--
MOLECULE: Nc1nc(N)nc(CCCCc2nc(N)nc(N)n2)n1
TARGET_OF_ASSAY: SK-MEL-5
ANSWER_LABEL: NO
--
MOLECULE: C=CCc1[nH]c2c(OCc3ccccc3)cc(N(CC=C)C(C)=O)cc2c1C
TARGET_OF_ASSAY: SK-MEL-5
ANSWER_LABEL: NO
--
MOLECULE: CCOc1cccc2sc(N)nc12
TARGET_OF_ASSAY: SK-MEL-5
ANSWER_LABEL: NO
--
MOLECULE: CSc1nc2c(ncn2C2OC(CO)C(O)C(O)C2O)c(=O)[nH]1 (stereo not given)
TARGET_OF_ASSAY: SK-MEL-5
ANSWER_LABEL: NO
--
MOLECULE: O=c1c(C(c2cccc(C(c3c(O)oc4ccccc4c3=O)c3c(O)oc4ccccc4c3=O)c2)c2c(O)oc3ccccc3c2=O)c(O)oc2ccccc12
TARGET_OF_ASSAY: SK-MEL-5
ANSWER_LABEL: NO
--
MOLECULE: COC(=O)[C@@H]1C[C@@H](O)CN1C(=O)c1ccc([N+](=O)[O-])cc1[N+](=O)[O-]
TARGET_OF_ASSAY: SK-MEL-5
ANSWER_LABEL: NO
--
MOLECULE: Cc1c(C)c2cc3c(=O)c(CCl)coc3c(C)c2oc1=O
TARGET_OF_ASSAY: SK-MEL-5
ANSWER_LABEL: NO
--
MOLECULE: COc1ccc(/C=N/N=C(\N)NO)c(Cl)c1O
TARGET_OF_ASSAY: SK-MEL-5
ANSWER_LABEL: NO
